assayNotes: 72-week population pharmacokinetic analysis in patients with SCD
Assay type: in vivo, human
details: human, plasma, oral, 1500 mg; 1,500 mg; geometric mean
valueKind: Cmax (ng/mL)
One number for each entry, in ng/mL.

Just so you know, measured Cmax for CC(C)n1nccc1-c1ncccc1COc1cccc(O)c1C=O came out at 14000

====

assayNotes: 72-week population pharmacokinetic analysis in patients with SCD
Type: in vivo, human
details: human, plasma, oral, 1500 mg; 1,500 mg; geometric mean; read-out: AUC0-24 h, plasma
valueKind: AUC(0-t) (µg·h/mL)
Give bare numbers, in µg·h/mL.

Just so you know, measured AUC(0-t) for CC(C)n1nccc1-c1ncccc1COc1cccc(O)c1C=O came out at 278
